Test system: KM12 colon
Assay: NCI-60 one-dose screen, 48 h
Details: 10 µM unless noted
The panel holds about 83,000 compounds, 20% with a hit somewhere; the sample as a whole holds those more often. Active and inactive are the calls of the source. How the source made its calls: active means growth percent below 10; inactive means the rest.
Pick one and only one: Y for active, N for inactive

Q: Each compound tested received a call. Report the one for COc1ccc(/C=N/NC(=O)Cn2c(Cc3cccc4ccccc34)nc3ccccc32)cc1 .
Ans: N

Q: Similarly, C=C1C(=O)O[C@H]2[C@H]1CC/C(COC(=O)NCCc1ccc(OC)cc1)=C\CC[C@@]1(C)O[C@@H]21 ?
Ans: N

Q: Likewise for O=c1cc(C2NCCc3c2[nH]c2ccccc32)c2c(ccc3ccccc32)o1 (stereo not given) ?
Ans: N

Q: Next record, please: N#Cc1c(NC(=O)c2ccc([N+](=O)[O-])o2)[n+]([O-])c2cc(F)c(F)cc2[n+]1[O-]
Ans: N

---
Q: Record request — test call for CCOC(=O)C1=C(CSC(=S)N(C2CCCCC2)C2CCCCC2)N(C)C(=O)NC1c1ccccc1 (stereo not given)
Ans: N

Q: Could you do the same for CCN(CC)P(=O)(N(CC)CC)N(CCCSC/C=C(\C)CC/C=C(\C)CCC=C(C)C)CCCN1CCN(C)CC1 , please?
Ans: N

Q: How about COc1ccc(Cl)cc1NC(N)=S ?
Ans: N

Q: How about CC/C=C\C/C=C\C[C@H](O)C/C=C1/C(=O)C=C[C@H]1C/C=C\CCC(=O)OC ?
Ans: Y

Q: What about CCC#CC[C@H]1C/C=C2/C(=O)C=C[C@@H]2C/C=C\CCCC(=O)O1 ?
Ans: Y

Q: Now give it for COc1cccc2cc(-c3cc4ccccc4[nH]3)c(=NC(=O)c3ccc(Cl)cc3)oc12 too.
Ans: N

###

Listed below: growth values for each entry.
Test system: SNB-75 CNS
Experiment: NCI-60 one-dose screen, 48 h (100 = growth as untreated, 0 = no growth, -100 = all killed)
Details: 10 µM unless noted
Compounds without any hit were thinned out: in the full panel of roughly 83,000, 20% have a hit.
Respond with the bare value in %.

Q: For the compound COc1ccc(-c2nc(-c3ccccc3)c(-c3ccccc3)n2C2CC2)cc1OC1CCCCC1 , what growth is on record?
Ans: 56.3

Further cases:
Q: Fill blank: measured growth of the compound Cc1ccc2nc(-c3c(N)n[nH]c3CCCO)[nH]c(=O)c2c1 is ____.
Ans: 91

Q: Note, next up: CC(C)C[C@H](NC(=O)[C@@H](Cc1ccccc1)n1ccc(Nc2ccccc2)cc1=O)B(O)O
Ans: -18.6

Q: Same for CCCCCCCCCCC/C=C\C[C@H](O)C/C=C1/C(=O)C=C[C@@H]1C/C=C\CCCC(=O)OC
Ans: -4.49

###

Tested on: UO-31 renal
Assay: NCI-60 one-dose screen, 48 h
Settings: 10 µM unless noted
Compounds without any hit were thinned out: in the full panel of roughly 83,000, 20% have a hit. The source made the active and inactive calls. Rule for the calls: active = growth percent below 10; inactive = the rest.
Bench note: report the call from active, inactive

// known answers, use as guide
Q: Just curious, what result did Cc1ccc(S(=O)(=O)N2CCC(C(=O)Nc3ccc(F)cc3F)CC2)cc1 get here?
Ans: inactive

Q: Please do the same for Nc1c(C(=O)c2ccc(F)cc2)sc2nc3c(cc12)CCCC3 as well.
Ans: inactive

Q: // same read-out, input: Nc1nc(-c2cc3ccccc3o2)cc(=O)c(=O)[nH]1
Ans: inactive

Q: Entry CC/C=C\C[C@H](O)C/C=C1/C(=O)C(Cl)=C[C@@H]1C/C=C\CCCC(=O)O please
Ans: inactive

Q: Try this molecule next: Nc1nn2cc(-c3ccc(Cl)s3)nc2c2ccccc12
Ans: inactive

---
Q: // param item: CCc1c(C(=O)Nc2ccc3ccccc3c2)[nH]c(C)c1C(C)=O ; yields the recorded call
Ans: inactive

Q: Next: COc1ccc(/C=C2\C(=O)N(C(=O)c3csc(NC(C)=O)n3)N=C2C)cc1
Ans: inactive

Q: Could you do the same for CC(=O)Nc1nc(C(=O)N2N=C(C)/C(=C/c3cccs3)C2=O)cs1 , please?
Ans: inactive

Q: Also COc1ccc(NC(=S)/N=c2\oc3c(OC)cccc3cc2-c2cc3ccccc3[nH]2)cc1 ?
Ans: inactive

Q: COc1ccc(-c2cn[nH]c2-c2cc(OC)c3c(c2)OCCO3)cc1 ?
Ans: inactive

Q: Also, CCn1c(=O)c2c(=O)c3c4c(oc3oc2c2ccccc21)C(=O)c1ccccc1C4=O please.
Ans: inactive

// data source = PubChem BioAssay (NCI)
